molecular target: Bcl-xL (Homo sapiens (Human)); test: Fluorescence polarization competition assay, Bcl-xL; assay type: binding; settings: ΔG from experimental Ki
Sequence (Q07817 whole entry): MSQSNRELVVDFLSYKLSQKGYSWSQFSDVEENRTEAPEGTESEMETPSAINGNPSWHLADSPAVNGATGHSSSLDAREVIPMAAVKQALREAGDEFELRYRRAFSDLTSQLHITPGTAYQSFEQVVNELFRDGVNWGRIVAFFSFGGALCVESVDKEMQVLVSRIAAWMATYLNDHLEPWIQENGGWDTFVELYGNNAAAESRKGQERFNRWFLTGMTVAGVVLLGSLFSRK
recorded.metric: Bcl-xL Exp ΔG (kcal/mol)

Some solved cases for reference:
O=C(O)c1cc(S(=O)(=O)NCc2ccc(Cl)cc2)c2ccccc2c1O
-4.73
Cc1cc(Oc2ccc(N(CC(C)C)S(=O)(=O)c3cc(C(=O)O)c(O)c4ccccc34)cc2)cc(C)c1Cl
-9.23
O=C(O)c1cc(S(=O)(=O)Nc2ccc(Br)cc2Br)c2ccccc2c1O
-7.68
O=C(O)c1cc(S(=O)(=O)Nc2ccc(Oc3cccc4ccccc34)cc2)c2ccccc2c1O
-9.08
O=C(O)c1cc(S(=O)(=O)Nc2ccc(Oc3ccc(Cl)cc3Cl)cc2)c2ccccc2c1O
-9.16

I. Cc1cc(Oc2ccc(N(Cc3ccccc3)S(=O)(=O)c3cc(C(=O)O)c(O)c4ccccc34)cc2)cc(C)c1Cl
II. O=C(O)c1cc(S(=O)(=O)Nc2ccc(Br)cc2)c2ccccc2c1O
Query: Sorting by Bcl-xL Exp ΔG in descending order, would I or II appear first? Write down the label attached to your selection.
Reply: II
(II: -5.85 kcal/mol, I: -8.82 kcal/mol)

// provenance: patent US10858316B2
